- ASSAY_TEXT: in vitro
- STUDY_CONDITIONS: human, plasma
- Description: Stability in human plasma assessed as half life
OBSERVATION_TYPE: half-life (min)

- SMILES_RECORD: "CC(C)(C)C(=O)n1nc(-c2cccnn2)cc1NCc1ccc(Cl)s1"
  half-life, min: 51

[1] COc1ccccc1C(=O)n1nc(-c2ccccn2)nc1NCc1ccc(Cl)s1
[2] O=C(c1ccsc1)n1nc(-c2ccccc2F)nc1NCc1cccs1
[3] COc1ccccc1C(=O)n1nc(-c2ccccc2F)nc1NCc1cccs1
Order the 3 compounds from highest to lowest half-life. Please respond by ranking the labels in the order requested.
2, 3, 1
(2: 69 min, 3: 48 min, 1: 30 min)

----------
- ASSAY_TEXT: Oral bioavailability in CD-1 mouse at 5 mg/kg measured after 24 hrs by LC-MS analysis
- Format: ADME, organism-based
- STUDY_CONDITIONS: in vivo
OBSERVATION_TYPE: bioavailability (%)
Just the number please, in %, no unit attached.

Provide bioavailability value for the following compound: CC(C)(C)C(=O)n1nc(-c2ccc[nH]c2=O)cc1NCc1ccc(Cl)s1
22.8

----------
- ASSAY_TEXT: Cmax in CD-1 mouse at 5 mg/kg, po measured after 24 hrs by LC-MS analysis
- Assay type: ADME, organism-based
- Design: time 24 hrs, dose 5 mg/kg, route po
- STUDY_CONDITIONS: in vivo
OBSERVATION_TYPE: Cmax (ng/mL)
Just the number please, in ng/mL, no unit attached.

Provide Cmax value for the following molecule: CC(C)(C)C(=O)n1nc(-c2ccc[nH]c2=O)cc1NCc1ccc(Cl)s1
127

----------
- ASSAY_TEXT: Tmax in CD-1 mouse at 5 mg/kg, po measured after 24 hrs by LC-MS analysis
- Type: ADME, organism-based
- STUDY_CONDITIONS: in vivo
OBSERVATION_TYPE: Tmax (min)
Just the number please, in min, no unit attached.

Provide Tmax value for the following molecule: CC(C)(C)C(=O)n1nc(-c2ccc[nH]c2=O)cc1NCc1ccc(Cl)s1
42

----------
- ASSAY_TEXT: Half life in CD-1 mouse at 5 mg/kg, po measured after 24 hrs by LC-MS analysis
- Type: ADME, organism-based
- STUDY_CONDITIONS: in vivo
OBSERVATION_TYPE: half-life (h)
Just the number please, in h, no unit attached.

Provide half-life value for the following molecule: CC(C)(C)C(=O)n1nc(-c2ccc[nH]c2=O)cc1NCc1ccc(Cl)s1
5.9

----------
- ASSAY_TEXT: AUC in CD-1 mouse at 0.5 mg/kg, iv measured after 24 hrs by LC-MS analysis
- Assay type: ADME, organism-based
- Set-up: time 24 hrs, dose 0.5 mg/kg, route iv
- STUDY_CONDITIONS: in vivo
OBSERVATION_TYPE: AUC at 24 h (ng·h/mL)
Just the number please, in ng·h/mL, no unit attached.

Provide AUC at 24 h value for the following compound: CC(C)(C)C(=O)n1nc(-c2ccc[nH]c2=O)cc1NCc1ccc(Cl)s1
300

----------
- ASSAY_TEXT: AUC in CD-1 mouse at 5 mg/kg, po measured after 24 hrs by LC-MS analysis
- Format: ADME, organism-based
- Parameters: dose 5 mg/kg, time 24 hrs, route po
- STUDY_CONDITIONS: in vivo
OBSERVATION_TYPE: AUC at 24 h (µg·h/mL)
Just the number please, in µg·h/mL, no unit attached.

Provide AUC at 24 h value for the following molecule: CC(C)(C)C(=O)n1nc(-c2ccc[nH]c2=O)cc1NCc1ccc(Cl)s1
0.713

----------
- ASSAY_TEXT: in vitro
- STUDY_CONDITIONS: CD-1, mouse, plasma
- Description: Stability in CD-1 mouse plasma assessed as half life
OBSERVATION_TYPE: half-life (h)

[I] COc1ccccc1C(=O)n1nc(-c2ccccn2)nc1NCc1ccc(Cl)s1
[II] CC(C)(C)C(=O)n1nc(-c2ccc[nH]c2=O)cc1NCc1ccc(Cl)s1
[III] CC(C)(C)C(=O)n1nc(C2CCCNC2)cc1NCc1ccc(Cl)s1 (configuration not stated)
[IV] COc1ccccc1C(=O)n1nc(C2CCOCC2)cc1NCc1ccc(Cl)s1
// ascending sort on recorded half-life Please respond by ranking the labels in the order requested.
I, IV, II, III
(I: 0.0683 h, IV: 2.67 h, II: 5.83 h, III: 15.2 h)

----------
- ASSAY_TEXT: Half life in CD-1 mouse at 0.5 mg/kg, iv measured after 24 hrs by LC-MS analysis
- Format: ADME, organism-based
- STUDY_CONDITIONS: in vivo
OBSERVATION_TYPE: half-life (min)
Just the number please, in min, no unit attached.

Provide half-life value for the following compound: CC(C)(C)C(=O)n1nc(-c2ccc[nH]c2=O)cc1NCc1ccc(Cl)s1
42

----------
- ASSAY_TEXT: in vitro
- STUDY_CONDITIONS: CD-1, mouse, plasma
OBSERVATION_TYPE: half-life (min)
Just the number please, in min, no unit attached.

- SMILES_RECORD: "COc1ccccc1C(=O)n1nc(C2CCNCC2)cc1NCc1ccc(Cl)s1"
  OBSERVATION_TYPE: "half-life"
  MEASURED_RESULT: 43

Now let's try a different one.
Provide half-life value for the following molecule: CC(C)(CO)C(=O)n1nc(C2CCNCC2)c(F)c1NCc1ccc(Cl)s1
44
